Biological target: Protein translocase subunit SecA (Escherichia coli (strain K12))
Experiment: Assay to Identify E. coli SecA ATPase Inhibitors
Assay type: functional
Set-up: scale not given: direction of the effect not stated beside the values
Details: 30 µM
Potency and affinity values are given separately.
Assign Percent Effect to each entry below.
Please don't drop the unit; write it after the number.

q: Give the reported value of Percent Effect for this record: CCOCCN1CCCC(c2cc(C(N)=O)[nH]n2)C1 (configuration not stated)
a: -1.61%

q: Please supply the value of reported Percent Effect for the item COCCN1C[C@@H]2CN(C(=O)[C@H]3CCCO3)C[C@@H]2C1=O
a: 0.0627%

q: Please report the measured Percent Effect for CC(Cn1cccn1)NC(=O)Cc1cccs1 (configuration not stated)
a: -0.712%

q: Give the reported Percent Effect for this compound. CCc1nc(C2CCCN2CCn2cncn2)no1 (configuration not stated)
a: -1.22%

q: Answer with the recorded Percent Effect for the compound listed here: O=c1c2ccccc2nc2n1C(CSc1ccc(Cl)cc1Cl)CN2 (configuration not stated)
a: -1.78%

q: Identify measured Percent Effect corresponding to OC(COCc1ccccc1F)CN1CCc2c(ncn2C2CC2)C1 (configuration not stated)
a: -3.46%

q: Fill in reported Percent Effect for this entry: CC(C)C(=O)N1CCC2(CCCN(CCOc3ccccc3)C2)C1 (configuration not stated)
a: -6.57%

q: Please list Percent Effect recorded for the compound NC(=O)C1CCC(NC(=O)COc2ccc(Cl)c(Cl)c2)CC1 (configuration not stated)
a: -4.03%

q: Look up and report measured Percent Effect for this entry: Cc1cc(NC(=O)NCC2CCOC2)no1 (configuration not stated)
a: 0.735%

q: Please give the documented Percent Effect of CC(=O)N1[C@@H](C(=O)NCC2CC2)C[C@@H]2CN(Cc3ccco3)C[C@@H]21
a: -0.254%

q: Dear colleague, please send me the reported Percent Effect for Cc1nc(C)n(CC2CCCN2Cc2nc3ccccc3n2C)n1 (configuration not stated) when you can.
a: -5.84%

q: Return value of Percent Effect for input COc1cc(S(=O)(=O)N2CCc3ccc(F)cc32)cc(C(=O)O)c1OC , no commentary.
a: -7.45%

q: For the compound COCc1nc(C(=O)N2CCCC(n3cccn3)C2)cs1 (configuration not stated) , report Percent Effect.
a: -1.77%

q: Fill in reported Percent Effect for this entry: COCCc1noc(CN2CCOC(Cn3nc(C)cc3C)C2)n1 (configuration not stated)
a: -2.32%

q: Give the reported value of Percent Effect for this record: CC(C)CNc1nc(C(=O)/N=c2\[nH]nc(C(C)(C)C)s2)cs1
a: 2.26%

q: Give the reported Percent Effect for this compound. CNC(=O)c1ccc(CN(C(=O)c2scnc2C)C2CC2)cc1
a: -5.91%

q: Quick one: give measured Percent Effect for Cn1ccnc1CN1CCCC1c1noc(C2CC2)n1 (configuration not stated)
a: -1.78%

q: Supply recorded Percent Effect for Cc1ccccc1-c1cncc(C2CCN(C(C)C)CC2)n1 here.
a: -10.1%

q: Query Percent Effect for c1cc(-c2noc(CN3CCn4c(nnc4C4CC4)C3)n2)co1
a: -1.2%

q: Report measured Percent Effect; entry is CNC(=O)c1cc(S(=O)(=O)C(C)C)cs1
a: 0.159%

q: Output Percent Effect of CCCN1CCCn2nc(CNS(=O)(=O)c3ccc(C)cc3)cc2C1
a: -8.28%

q: Provide one value: measured Percent Effect of Cc1nn(C)c(N(C)C)c1CNC(C)COc1cccc(F)c1 (configuration not stated)
a: -4.28%

q: Quick one: give measured Percent Effect for CC(C)OCCN(C)C(C)c1cccc(S(N)(=O)=O)c1 (configuration not stated)
a: -5.89%

q: Give a short answer stating reported Percent Effect for CS(=O)(=O)N1CCC(c2nnc3ccc(C(=O)N4CCCC4)cn23)C1 (configuration not stated) .
a: -4.16%

q: Respond only with Percent Effect recorded for COC(=O)COc1cccc(NS(=O)(=O)c2cc(C(=O)O)cs2)c1
a: -0.923%

q: Let me know recorded Percent Effect for CCc1nc(CC(=O)N2CCCC2Cn2cccn2)cs1 (configuration not stated) , thanks.
a: -2.88%

q: In one line, give reported Percent Effect of the entry CN(CC1CCCCC1)C(=O)c1ccc(-n2ncc(C#N)c2N)cc1 .
a: -0.675%

q: Hello, please tell me recorded Percent Effect for this one: CC(C)NC(=O)CC1COC2(CCN(Cc3cccs3)CC2)C1 (configuration not stated)
a: -3.1%

q: Please list Percent Effect recorded for the compound Cc1ccc(SCC2CNc3nc4ccccc4c(=O)n32)c(C)c1 (configuration not stated)
a: 0.606%

q: Supply measured Percent Effect of CS(=O)(=O)N1CCC[C@]2(C[C@@H](Oc3ncccc3F)CO2)C1 in your reply.
a: -5.48%

q: Tell me its Percent Effect given O=C(NCCOc1ccc(Cl)cc1)N1CCS(=O)(=O)CC1 as the entry.
a: -5.3%

q: Check the records and state Percent Effect for CN(CC(=O)N1CCCN(Cc2cscn2)CC1)c1cnccn1
a: 0.471%

----------
Field: Percent Effect. Provide a value for each of the molecules that follow.
Target: Tyrosyl-tRNA synthetase, putative (Trypanosoma cruzi (strain CL Brener))
Assay: Trypanosoma cruzi tyrosyl tRNA synthetase (TcYRS) _High Tyrosine SOP; also: in the data most compounds retested in dose-response had high values
Type: functional
Set-up: scale not given: direction of the effect not stated beside the values
Settings: 30 µM
Number in %, nothing else.

q: Return Percent Effect for the following molecule: COc1ccc2c(c1)OCC(CNC(=O)c1ccncc1)C2 (stereo not given)
a: 7.98

q: Annotate the molecule CCn1c(Cn2cncn2)nnc1C1CCN(Cc2ccc(C)o2)CC1 with its measured Percent Effect.
a: 4.79

q: Give recorded Percent Effect. CC(C)c1cc(N2CCC(N)CC2)n2nccc2n1
a: 3.72

q: Give the value of Percent Effect reported for the following: O=C(CN1CCCS1(=O)=O)NCCOc1ccc2c(c1)CCC2
a: 1.44

q: Return value of Percent Effect for input CN(C)CC1CN(Cc2nnc(-c3ccccc3Cl)o2)CCO1 (stereo not given) , no commentary.
a: -3.68

q: Please look at this molecule and report its Percent Effect: NC[C@H]1CC[C@H](C(NC(=O)c2ccccn2)c2ccccn2)CC1 (stereo not given in full)
a: 4.23

q: Provide Percent Effect value for the following molecule: COc1cc(N2CCCC(c3nccn3Cc3cscn3)C2)nc(N)n1 (stereo not given)
a: 6.92

q: Fill in Percent Effect for record CCS(=O)(=O)CCN1CCC(N(C)Cc2noc(C(C)C)n2)C1 (stereo not given)
a: 4.9

q: // fetch Percent Effect given entry NC(=O)NC(=O)CCN1CCCN(c2nccs2)CC1
a: 7.89

q: Tell me measured Percent Effect for Cc1cc(C)n(CC2CN(Cc3nc(-c4ccco4)no3)CCO2)n1 (stereo not given) please.
a: 5.88

q: Give Percent Effect for the following molecule: CC(C)N(C)C(=O)CN1CCCC(c2ccc(C(=O)O)cc2)C1 (stereo not given)
a: 5.85

q: Note down Percent Effect recorded for CN1CCC(c2ncc3c(n2)CCN(C(=O)CC2C=CCC2)C3)CC1 (stereo not given)
a: 12.7

q: Identify measured Percent Effect associated with CNC(=O)CN1CCCC12CCN(C(=O)c1ccc(F)cc1)CC2
a: -0.966

q: Name the recorded Percent Effect of the item CCn1cc2c(n1)C(COC)CN(C(=O)COc1ccccc1C)C2 (stereo not given) in your answer.
a: 2.63

q: Give me measured Percent Effect, please, for this molecule: CCc1ccsc1C(=O)N1CCN(C(=O)CC(F)(F)F)CC1
a: 6.86

q: State its Percent Effect for this molecule: Cc1ccc(-c2nc(CN3CCn4c(nnc4C4CC4)C3)co2)cc1
a: 6.84

q: Respond only with Percent Effect recorded for Cc1cncc(C2CCCN(C(=O)c3c[nH]c(=O)[nH]c3=O)C2)n1 (stereo not given)
a: 4.23

q: Give recorded Percent Effect. O=C(c1ccc(OCC2CC2)nc1)N1CCCC(n2cncn2)C1 (stereo not given)
a: 5.26

q: Give the reported Percent Effect for this molecule. COc1ccc(C(=O)NCCCn2ccnc2)c(OC)n1
a: 6.76

q: Annotate the molecule COc1ncccc1CNC(=O)c1cccc(C)n1 with its measured Percent Effect.
a: 6.22

q: Supply Percent Effect value. Item: COc1ccc(CC(=O)N2C[C@@H]3COC[C@]3(CN(C)C)C2)cc1
a: -26.8

q: Report Percent Effect for CN(C)CC(=O)N1C[C@H]2CCC[C@@]2(COc2ccccn2)C1
a: -0.526

q: Consider the molecule Cc1noc(C)c1CC(=O)OCC(=O)N1CCc2sccc2C1 . State its measured Percent Effect.
a: 6.84

q: In one line, give reported Percent Effect of the entry O=C(NC[C@]1(O)CN(Cc2ccccc2F)C[C@H]1O)c1ccccn1 .
a: 4.23

q: Provide Percent Effect value for the following molecule: O=C1COC2(CCN(C(=O)c3ccco3)CC2)CN1Cc1ccccn1
a: 11.6

q: Specify reported Percent Effect for the molecule shown: CNc1cc(C2CCCN2C(=O)c2ccc3oc(=O)n(C)c3c2)ccn1 (stereo not given)
a: 0

q: Provide Percent Effect value for the following molecule: Fc1cccnc1CN1CCCCC1c1ccn2ccnc2n1 (stereo not given)
a: 8.47

q: Supply Percent Effect value. Item: CN(C)CC1CN(Cc2coc(-c3cccs3)n2)CCO1 (stereo not given)
a: -0.526

q: Provide only the value of recorded Percent Effect for N#Cc1cccc(S(=O)(=O)NC(=O)COc2ccc3c(c2)CCC3)c1
a: 0.478

q: Report measured Percent Effect; entry is CCOCC1CC2(CCN(C(=O)c3ccccn3)CC2)CO1 (stereo not given)
a: 1.58
